Values from PubChem BioAssay (NCI)

Test system: HL-60(TB) leukemia
Test: NCI-60 one-dose screen, 48 h
Details: 10 µM unless noted
This is part of a sample that, as a whole, favours compounds with a hit. Of some 83,000 tested, about 20% had one in any assay. Activity calls are given as the source filed them. Rule for the calls: active = growth percent below 10; inactive = the rest.
Give one outcome, nothing more. List: label 1 (active), label 0 (inactive)

Answered examples (4):
[[record]]
molecule = "CC(C)(C)c1cc(Cl)c(O)c(CNCCO)c1"
group = "label 0"

[[record]]
molecule = "O=C(Nc1nc(Cl)nc(Nc2ccc(N3CCOCC3=O)cc2)n1)c1ccc(Cl)s1"
group = "label 0"

[[record]]
molecule = "COc1cc(Oc2cc(-c3cccnc3)ccc2NC(=O)Nc2ccc(F)cc2F)cc(OC)c1OC"
group = "label 0"

[[record]]
molecule = "C=CC(=O)Nc1cc2c(Nc3ccc(F)c(Cl)c3)ncnc2cc1C#CC(C)(C)N1CCN(C)CC1"
group = "label 1"


Task: What did this assay record as the result for c1ccc(CCNc2c3ccccc3nc3ccccc23)cc1 ?
Output: label 0

Task: What did this assay record as the result for CN(C)CCCn1c2c(c3ccc(-c4ccn[nH]4)cc3c1=O)C(=O)c1ccccc1-2 ?
Output: label 1

Task: What did this assay record as the result for O=c1ccn(C2OC(CO)C(O)C2F)c(=O)[nH]1 (stereo not given) ?
Output: label 0

Task: What did this assay record as the result for CNc1nc(NC2CCCC2)nc(Sc2ccc(OC)cc2)n1 ?
Output: label 1

Task: What did this assay record as the result for C=C(C)[C@@H]1CC[C@]2(N=C=O)CC[C@]3(C)[C@H](CC[C@@H]4[C@@]5(C)Cc6c([nH]c7ccccc67)C(C)(C)[C@@H]5CC[C@]43C)[C@@H]12 ?
Output: label 0

Task: What did this assay record as the result for Cc1ccc2c(c1)C(=O)/C(=C/c1ccc(OCC(=O)c3ccccc3)cc1)O2 ?
Output: label 0
